EXPERIMENTAL TARGET: histamine receptor H1 (Homo sapiens)
Sequence (P35367 whole entry): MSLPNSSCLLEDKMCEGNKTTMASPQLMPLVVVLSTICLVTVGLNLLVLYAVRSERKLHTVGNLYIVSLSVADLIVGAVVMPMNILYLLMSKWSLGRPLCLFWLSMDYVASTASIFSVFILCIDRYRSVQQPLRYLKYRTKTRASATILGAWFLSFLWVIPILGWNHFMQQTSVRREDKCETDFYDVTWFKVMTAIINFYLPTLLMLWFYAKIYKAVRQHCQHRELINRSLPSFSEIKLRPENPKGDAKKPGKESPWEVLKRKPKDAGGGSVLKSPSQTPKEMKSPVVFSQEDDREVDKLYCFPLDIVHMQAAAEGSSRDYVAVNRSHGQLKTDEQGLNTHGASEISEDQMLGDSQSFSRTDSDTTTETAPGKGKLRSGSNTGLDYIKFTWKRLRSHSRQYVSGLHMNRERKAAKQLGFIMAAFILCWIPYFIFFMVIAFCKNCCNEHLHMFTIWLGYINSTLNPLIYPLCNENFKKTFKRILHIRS
PROCEDURE DETAILS: Histamine H1 radioligand binding ([3H]Pyrilamine)
CONDITIONS USED: read-out: Histamine Binding (1 μM) H1, percent inhibition of specific binding, 1 μM
Kindly supply the reported inhibition at 1 µM values for the records listed here.
Express your answer in %, writing the number without its unit.

[Q] Give recorded inhibition at 1 µM with histamine receptor H1 (Homo sapiens) for the following compound: C/C(=C(/C)n1c2c(c3cc(C)ccc31)CN(C)CC2)c1ccc(F)cc1 [compound 421]
[A] 93

[Q] Give recorded inhibition at 1 µM with histamine receptor H1 (Homo sapiens) for the following compound: C/C(=C\n1c2c(c3cc(C(F)(F)F)ccc31)CN(C)CC2)c1ccc(F)cc1 [Compound 268]
[A] 53

[Q] Give recorded inhibition at 1 µM with histamine receptor H1 (Homo sapiens) for the following compound: COc1ccc2c(c1)c1c(n2/C=C(\C)c2ccncc2)CCN(C)C1 [Compound 246]
[A] 7

[Q] Give recorded inhibition at 1 µM with histamine receptor H1 (Homo sapiens) for the following compound: Cc1ccc2c(c1)c1c(n2CC(C)(O)c2ccncc2)CCN(CC(F)(F)F)C1 (stereo not drawn) [Compound 341]
[A] 11

[Q] Give recorded inhibition at 1 µM with histamine receptor H1 (Homo sapiens) for the following compound: Cc1ccc2c(c1)c1c(n2CC(O)(c2ccccc2)c2ccc(F)cc2)CCN(C)C1 (stereo not drawn) [Compound No. 176]
[A] 21

[Q] Give recorded inhibition at 1 µM with histamine receptor H1 (Homo sapiens) for the following compound: C/C(=C\n1c2c(c3cc(C)ccc31)CN(C)CC2)c1cccnc1 [Compound 91]
[A] 11

[Q] Give recorded inhibition at 1 µM with histamine receptor H1 (Homo sapiens) for the following compound: C/C(=C/c1ccccc1)n1c2c(c3cc(C)ccc31)CN(C)CC2 [compound 429]
[A] 101

[Q] Give recorded inhibition at 1 µM with histamine receptor H1 (Homo sapiens) for the following compound: C/C(=C\n1c2c(c3cc(C)ccc31)CN(C)C(C)C2)c1ccc(C)nc1 (stereo not drawn) [Compound 259]
[A] 10

[Q] Give recorded inhibition at 1 µM with histamine receptor H1 (Homo sapiens) for the following compound: CCN1CCc2c(c3ccccc3n2/C=C(\C)c2ccncc2)C1 [Compound 266]
[A] -1

[Q] Give recorded inhibition at 1 µM with histamine receptor H1 (Homo sapiens) for the following compound: C/C(=C\n1c2c(c3cc(C)ccc31)CN(C)[C@@H](C)C2)c1ccncc1 [compound 389]
[A] 39

[Q] Give recorded inhibition at 1 µM with histamine receptor H1 (Homo sapiens) for the following compound: COc1ccc2c(c1)c1c(n2CC(C)(O)c2ccncc2)CCN(C)C1 (stereo not drawn) [Compound 188]
[A] 8

[Q] Give recorded inhibition at 1 µM with histamine receptor H1 (Homo sapiens) for the following compound: CCCC/C(=C\n1c2c(c3cc(Cl)ccc31)CN(C)CC2)c1ccc(F)cc1 [Compound 208]
[A] 64

[Q] Give recorded inhibition at 1 µM with histamine receptor H1 (Homo sapiens) for the following compound: CO/C(=C(/C)n1c2c(c3cc(C)ccc31)CN(C)CC2)c1ccncc1 [compound 418]
[A] 33

[Q] Give recorded inhibition at 1 µM with histamine receptor H1 (Homo sapiens) for the following compound: CN1CCc2c(c3cc(Cl)ccc3n2/C=C(/c2ccccc2)c2ccncc2)C1 [Compound No. 461]
[A] 31

[Q] Give recorded inhibition at 1 µM with histamine receptor H1 (Homo sapiens) for the following compound: C/C(=C\n1c2c(c3cc(Cl)ccc31)CN(C)C(C)C2)c1ccc(F)cc1 (stereo not drawn) [Compound 262]
[A] 66

[Q] Give recorded inhibition at 1 µM with histamine receptor H1 (Homo sapiens) for the following compound: C/C(=C\n1c2c(c3cc(C)ccc31)CN(C)C(C)C2)c1ccncc1 (stereo not drawn) [Compound 257]
[A] 18

[Q] Give recorded inhibition at 1 µM with histamine receptor H1 (Homo sapiens) for the following compound: C/C(=C\n1c2c(c3cc(C)ccc31)CN(C)CC2)c1cc(F)c(F)cc1Cl [Compound 221]
[A] 90

[Q] Give recorded inhibition at 1 µM with histamine receptor H1 (Homo sapiens) for the following compound: C/C(=C\n1c2c(c3cc(C)ccc31)CN(C)CC2)c1ccc(C(=O)N(C)C)cc1 [compound 436]
[A] 12

[Q] Give recorded inhibition at 1 µM with histamine receptor H1 (Homo sapiens) for the following compound: C/C(=C\n1c2c(c3cc(Cl)ccc31)CN(C)CC2)c1ccc(F)cc1F [Compound 277]
[A] 95

[Q] Give recorded inhibition at 1 µM with histamine receptor H1 (Homo sapiens) for the following compound: Cc1ccc2c(c1)c1c(n2/C=C(\c2ccccc2)c2ccncc2)CCN(C)C1 [compound 455]
[A] 13

[Q] Give recorded inhibition at 1 µM with histamine receptor H1 (Homo sapiens) for the following compound: Cc1ccc2c(c1)c1c(n2C(C)C(O)c2ccccc2)CCN(C)C1 (stereo not drawn) [Compound No. 468]
[A] 82

[Q] Give recorded inhibition at 1 µM with histamine receptor H1 (Homo sapiens) for the following compound: C/C(=C\n1c2c(c3cc(C)ccc31)CN(CCc1ccccc1)CC2)c1ccncc1 [compound 412]
[A] 27

[Q] Give recorded inhibition at 1 µM with histamine receptor H1 (Homo sapiens) for the following compound: Cc1ccc2c(c1)c1c(n2CC(O)c2ccc(C)nc2)CCN(C)C1 (stereo not drawn) [Compound 48]
[A] 93

[Q] Give recorded inhibition at 1 µM with histamine receptor H1 (Homo sapiens) for the following compound: C/C(=C\n1c2c(c3cc(Cl)ccc31)CN(C)CC2)c1ccccc1Cl [Compound 238]
[A] 58
